Test system: KRAS-mutant PDC multicell tumor spheroid viability;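 further: viability read after seven days of drug exposure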
assay notes: Anticancer human tumor 521955-158-R2-J5-PDC patient-derived pancreatic carcinoma cell line growth inhibition [KRAS2]
details: curve of first compound; second compound 0.1 µM
reported metric: IC50 (nM)

{"compound": "Cn1ncnc1[C@H]1c2n[nH]c(=O)c3cc(F)cc(c23)N[C@@H]1c1ccc(F)cc1 + C=CC(=O)N1CCN(c2nc(OCC3CCCN3C)nc3c2CCN(c2cccc4cccc(C)c24)C3)CC1CC#N", "system tested": "KRAS-mutant PDC multicell tumor spheroid viability", "relation qualifier": ">", "reading": 100}
{"compound": "CC(C)n1nc(-c2ccc3oc(N)nc3c2)c2c(N)ncnc21 + CNCc1ccccc1-c1csc(C(C)Nc2nc(C)nc3cc(OC)c(OC)cc23)c1", "system tested": "KRAS-mutant PDC multicell tumor spheroid viability", "relation qualifier": "=", "reading": 7.42}
{"compound": "COc1cc(Nc2ncc3c(n2)-c2ccc(Cl)cc2C(c2c(F)cccc2OC)=NC3)ccc1C(=O)O + CNCc1ccccc1-c1csc(C(C)Nc2nc(C)nc3cc(OC)c(OC)cc23)c1", "system tested": "KRAS-mutant PDC multicell tumor spheroid viability", "relation qualifier": "=", "reading": 75.6}
{"compound": "CN(C)C/C=C/C(=O)Nc1cc2c(Nc3ccc(F)c(Cl)c3)ncnc2cc1O[C@H]1CCOC1 + C=CC(=O)N1CCN(c2nc(OCC3CCCN3C)nc3c2CCN(c2cccc4cccc(C)c24)C3)CC1CC#N", "system tested": "KRAS-mutant PDC multicell tumor spheroid viability", "relation qualifier": ">", "reading": 100}
{"compound": "CN(C)C/C=C/C(=O)Nc1cc2c(Nc3ccc(F)c(Cl)c3)ncnc2cc1O[C@H]1CCOC1 + COc1cc2nc(C)nc(NC(C)c3cc(N)cc(C(F)(F)F)c3)c2cc1OC1CCOC1", "system tested": "KRAS-mutant PDC multicell tumor spheroid viability", "relation qualifier": ">", "reading": 100}
